pKi: −log10 of the molar value.
Collected pKi for Histamine H2 receptor (Homo sapiens, UniProt P25021) across several studies; molecules listed below.

Molecule | pKi
N[C@H](CCS(=O)(=O)O)C(=O)O | < 5.00
CCn1c(=O)[nH]c(=O)c2conc21 | < 5.00
N[C@H](CS(=O)(=O)O)C(=O)O | < 5.00
C(=CCCC1CCCCC1)CCc1cnc[nH]1 | 5.35
O=C(c1ccc(OCCCc2cnc[nH]2)cc1)C1CC1 | < 5.00
NC(CS(=O)O)C(=O)O (stereo unspecified) | < 5.00

---

Field: pKi. System: Histamine H2 receptor (Homo sapiens, UniProt P25021). Provenance: assorted publications.
Sequence (P25021 whole entry): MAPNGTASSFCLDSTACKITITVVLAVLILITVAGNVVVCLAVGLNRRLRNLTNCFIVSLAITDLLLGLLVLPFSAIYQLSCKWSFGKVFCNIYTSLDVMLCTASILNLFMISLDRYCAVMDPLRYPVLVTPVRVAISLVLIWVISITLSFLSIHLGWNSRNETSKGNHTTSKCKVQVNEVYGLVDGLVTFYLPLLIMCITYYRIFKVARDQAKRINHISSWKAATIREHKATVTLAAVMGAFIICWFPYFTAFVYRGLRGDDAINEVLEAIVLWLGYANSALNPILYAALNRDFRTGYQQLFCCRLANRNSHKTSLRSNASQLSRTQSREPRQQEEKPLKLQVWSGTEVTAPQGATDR
pKi: −log10 of the molar value.
Endpoint label: pKi

Compound | Result
CC(C)C(=O)N(c1ccccc1)C1CC(C)N(C(=O)c2ccccc2)c2ccccc21 (centres undefined) | < 6.00
N[C@@H](CS)C(=O)O | < 5.00
N[C@@H](CCS)C(=O)O (racemic) | < 5.00
CN(C)[C@@H]1CCN(CCCOc2ccc(-c3ccc(C#N)cc3)cc2)C1 | < 5.00
CCC(=O)N1c2ccccc2C(N(C(C)=O)c2ccccc2)CC1C (centres undefined) | < 6.00
NC(CSSCC(N)C(=O)O)C(=O)O (centres undefined) | < 5.00
CC1CC(N(C(=O)C2CC2)c2ccccc2)c2ccccc2N1C(=O)c1ccccc1 (centres undefined) | < 6.00
CSCC[C@@H](N)C(=O)O | < 5.00
O=C(CCCCC1CCCCC1)N1CCC(c2c[nH]cn2)CC1 | 5.14
